Test system: phospho-STAT panel (pSTAT3/4/5), CD3+ T cells
method.summary: phospho-STAT induction by IL-6, MesoScale Discovery phospho-STAT panel
Assay type: cell-based, human
experimental.context: CD3+ T cells, IL-6 + drug 0.125 uM; MSD signal (No stim. 9210, IL-6 alone 17743)
Protocol: CD19 CAR-T, PBMC or CD3+ T cells (AllCells) were thawed and rested 0/N at 37° C. in R10 media. Cells were seeded at 700,000 cells/well and were either untreated or treated with 100 ng/ml IL6+drug at indicated concentrations for 20 minutes at 37° C. The cells were then washed with cold PBS and followed by 60 μl of Tris lysis buffer (provided by MSD) for 30 minutes on ice. […] Plates were washed and 1× read buffer added to each well and plates were read on the MSD instrument.
# pSTAT5 listing for each entry below

| substance.smiles | pSTAT5 |
| --- | --- |
| O=C(Nc1nc2cccc(-c3ccc(CN4CCS(=O)(=O)CC4)cc3)n2n1)C1CC1 | 10484 |
| C[C@@H]1C[C@H]2[C@@H]3CCC4=CC(=O)C=C[C@]4(C)[C@@]3(F)[C@@H](O)C[C@]2(C)[C@@]1(O)C(=O)CO | 16019 |
| CC[C@@H]1CN(C(=O)NCC(F)(F)F)C[C@@H]1c1cnc2cnc3[nH]ccc3n12 | 1757 |
| C[C@@H]1CCN(C(=O)CC#N)C[C@@H]1N(C)c1ncnc2[nH]ccc12 | 2424 |
| C[C@H]1C[C@@H]2[C@H]([C@@H](O)C[C@@]3(C)[C@H]2CC[C@]3(O)C(=O)CO)[C@@]2(C)C=CC(=O)C=C12 | 18739 |
